Test system: HCT-15 colon
assay-name: NCI tumour cell line growth inhibition, 48 h

molecule	TGI
COCN1C(=O)[C@@H]2C[C@@H](O)CN2C(=O)c2ccccc21	> 100 µM
c1ccc(CSC(SCc2ccccc2)c2cccc3ccccc23)cc1	> 10 µM
COc1ccc(/C=C/c2onc3c(=O)n(C)nc(-c4ccccc4)c23)cc1	> 100 µM
COc1cc2c3c(n(CCCN=[N+]=[N-])c(=O)c2cc1OC)-c1ccc(F)cc1C3=O	> 100 µM
Cc1cc(N(CCC#N)CCC#N)ccc1/C=C1N=C(/C=C\c2ccccc2)N(NC(=O)CC(=O)Nc2ccccc2Cl)C\1=O	> 100 µM
Cn1cnc([N+](=O)[O-])c1S(=O)(=O)Oc1ccc(Cl)cc1	3.47 µM
COc1cccc(/C=C2\CCC(CN(C)C)C2=O)c1 (stereo unspecified)	7.97 µM
CCOC(=O)c1cc(=O)c2cccc3c2n1CCS3	> 100 µM
COc1cc2c(/C=C3\C(=O)N(C)c4ccccc43)c[nH]c2cc1C	> 100 µM
CCOC(=O)Cc1csc(NC(=O)C(OC(=O)c2ccc(Cl)cc2)c2ccccc2)n1 (stereo unspecified)	> 100 µM
N#Cc1c(N)nc2c(c1-c1ccc(Cl)cc1)COc1ccc(F)cc1-2	84.7 µM
O=C1CCC2(c3ccc(Cl)cc3)Nc3ccccc3N12 (stereo unspecified)	> 100 µM
O=S(=O)(c1ccccc1)C1CC(c2nc3ccccc3[nH]2)=NO1 (stereo unspecified)	> 100 µM
CN1CCN(C)C1c1ccc(C2N(C)CCN2C)cc1	> 100 µM
Cc1cccc(N=Nc2c(C)nn(C(=O)CC(=O)Nc3ccc(Cl)cc3)c2C)c1	> 100 µM
COc1ccc(OC2(c3cc(OC)ccc3OC)OC(=O)c3ccccc32)cc1 (stereo unspecified)	> 100 µM
NC(=O)c1ncn(C2C=CC(CP(=O)(O)O)C2)c1N (stereo unspecified)	> 100 µM
COc1cc2c3c(n(CCCN=[N+]=[N-])c(=O)c2cc1OC)-c1ccccc1C3=O	> 100 µM
NCCCN(CCCCN(CCCN)Cc1ccccc1)Cc1ccccc1	> 100 µM
C[C@]12CC[C@H]3[C@@H](CC=C4C[C@@H](O)CC[C@@]43C)[C@@H]1C/C(=C\c1ccncc1)[C@@H]2O	58.9 µM
Cc1csc2nc(-c3cccc([N+](=O)[O-])c3)c(/C=N/N=C(N)N)n12	3.71 µM

---

Test system: MCF7 breast
assay-name: NCI tumour cell line growth inhibition, 48 h; in the data active = GI50 below about 0.43 µM; inactive = the rest
Labels: active, inactive

compound	test-system	group-label
CCCCCCCCCCCCCCCCn1cc[n+](C)c1	MCF7 breast	active
OCC1OC(N2C=C(c3nc4ccccc4s3)C3C=CC=CC32)C(O)C(O)C1O (centres undefined)	MCF7 breast	inactive
COc1ccc(Sc2[nH]c(C=O)c3ccccc23)cc1	MCF7 breast	inactive
Cn1cnc([N+](=O)[O-])c1S(=O)(=O)Oc1ccc(Cl)cc1	MCF7 breast	inactive
CC[C@@]1(O)CC(OC2CC(N3CCOCC3)C(O)C(C)O2)c2c(O)c3c(c(O)c2[C@H]1O)C(=O)c1cccc(O)c1C3=O (some centres undefined)	MCF7 breast	active
Cc1[nH]c2ccccc2c1CO	MCF7 breast	inactive
COc1ccc(C2c3ccc4ccccc4c3Oc3ncn(CCCn4ccnc4)c(=N)c32)cc1OC (centres undefined)	MCF7 breast	inactive
COc1cc2c(cc1OC)[C@@H]1C(=O)c3ccc4c(c3O[C@@H]1CO2)C[C@H](C(C)C)O4	MCF7 breast	inactive
CC[C@]12CN3CCc4c([nH]c5ccccc45)[C@@](C(=O)OC)(c4cc5c(cc4OC)N(C)[C@H]4[C@@](O)(C(=O)OC)[C@H](OC(C)=O)[C@]6(CC)C=CCN7CC[C@]54[C@@H]76)CC(C3)[C@H]1O2 (some centres undefined)	MCF7 breast	active
